Target: T1, human IL-33 (R&D Systems, #3625-IL-010/CF) (human) (UniProt O95760)
T1 sequence (looked up): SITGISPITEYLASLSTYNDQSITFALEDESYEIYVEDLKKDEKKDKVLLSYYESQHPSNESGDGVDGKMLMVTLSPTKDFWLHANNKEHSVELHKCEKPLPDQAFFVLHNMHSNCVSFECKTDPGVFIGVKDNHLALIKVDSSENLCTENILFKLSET
Test: SPR Biacore T200, 25 C
Assay Metric: koff (s⁻¹)
Numeric only. Scale: s⁻¹

H4H9664P (antibody, from another filing, IgG4, V domains shown) VH: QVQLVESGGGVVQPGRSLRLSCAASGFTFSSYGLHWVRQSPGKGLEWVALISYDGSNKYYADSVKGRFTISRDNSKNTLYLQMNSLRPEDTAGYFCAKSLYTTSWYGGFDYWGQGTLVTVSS VL: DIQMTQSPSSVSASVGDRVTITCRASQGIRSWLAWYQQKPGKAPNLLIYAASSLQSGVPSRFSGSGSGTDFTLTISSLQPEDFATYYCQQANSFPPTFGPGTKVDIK :: 0.000445
H4H9665P (antibody, from another filing, IgG4, V domains shown) VH: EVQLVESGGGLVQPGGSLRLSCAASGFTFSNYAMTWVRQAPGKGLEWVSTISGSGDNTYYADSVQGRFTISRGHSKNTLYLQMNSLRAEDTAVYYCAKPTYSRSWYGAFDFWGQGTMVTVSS VL: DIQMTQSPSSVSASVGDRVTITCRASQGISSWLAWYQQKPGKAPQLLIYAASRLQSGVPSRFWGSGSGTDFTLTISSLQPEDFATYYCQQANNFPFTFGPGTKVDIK :: 0.00116
H4H9660P (antibody, from another filing, IgG4, V domains shown) VH: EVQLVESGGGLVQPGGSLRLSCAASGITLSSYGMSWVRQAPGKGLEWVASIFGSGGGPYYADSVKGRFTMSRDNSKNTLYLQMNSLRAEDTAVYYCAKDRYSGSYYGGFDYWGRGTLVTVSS VL: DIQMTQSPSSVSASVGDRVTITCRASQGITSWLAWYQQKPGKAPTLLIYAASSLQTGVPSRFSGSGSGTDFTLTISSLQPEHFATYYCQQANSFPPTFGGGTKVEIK :: 0.00039
H4H9662P (antibody, from another filing, IgG4, V domains shown) VH: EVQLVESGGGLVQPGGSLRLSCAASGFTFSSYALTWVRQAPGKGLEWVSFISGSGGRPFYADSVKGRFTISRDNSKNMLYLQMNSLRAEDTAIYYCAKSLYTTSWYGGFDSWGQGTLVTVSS VL: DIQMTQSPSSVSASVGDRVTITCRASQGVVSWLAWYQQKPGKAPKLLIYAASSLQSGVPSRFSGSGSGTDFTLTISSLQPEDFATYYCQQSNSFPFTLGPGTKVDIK :: 0.000459

Let us move to another entry and its koff.
Input: Requested field: koff. Item: H4H9666P (antibody, from another filing, IgG4, V domains shown) VH: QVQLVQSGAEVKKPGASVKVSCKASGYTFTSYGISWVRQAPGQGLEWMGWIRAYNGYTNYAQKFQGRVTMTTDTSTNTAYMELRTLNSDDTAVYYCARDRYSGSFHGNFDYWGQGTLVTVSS VL: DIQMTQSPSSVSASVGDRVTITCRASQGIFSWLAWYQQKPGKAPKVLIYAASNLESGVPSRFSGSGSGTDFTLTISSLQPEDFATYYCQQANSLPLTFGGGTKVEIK
Output: 0.00115

These entries and their values trace back to patent US20190092852A1.
